# Test system: S. typhimurium/E. coli reverse mutation, colony counts
# METHOD SUMMARY: Bacterial reverse mutation test (aka Ames test) summary data;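 further: His-minus Salmonella and trp-minus E. coli WP2 uvrA pKM101 with or without liver S9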
Records with an inconclusive call do not appear. The source made the active and inactive calls. How the calls were made is not given here.
Classes used: Yes = active, No = inactive

# MOLECULE, TESTED TARGET, CLASS ASSIGNMENT
records = [
    ("ClC=C(Cl)Cl", "S. typhimurium/E. coli reverse mutation, colony counts", "No"),
    ("O=C(O)C(F)(F)C(F)(F)C(F)(F)C(F)(F)C(F)(F)F", "S. typhimurium/E. coli reverse mutation, colony counts", "No"),
    ("Cc1ccccc1C#N", "S. typhimurium/E. coli reverse mutation, colony counts", "No"),
    ("[CH3][Pb]([CH3])([CH3])[CH3]", "S. typhimurium/E. coli reverse mutation, colony counts", "No"),
    ("[O]=[V]([OH])([OH])[OH]", "S. typhimurium/E. coli reverse mutation, colony counts", "No"),
    ("Nc1ccccc1C(=O)OC1CCCCC1", "S. typhimurium/E. coli reverse mutation, colony counts", "No"),
    ("C=CC(=O)CC", "S. typhimurium/E. coli reverse mutation, colony counts", "Yes"),
    ("Nc1cccc(O)c1", "S. typhimurium/E. coli reverse mutation, colony counts", "Yes"),
    ("Nc1cc(Cl)c(N)c(Cl)c1", "S. typhimurium/E. coli reverse mutation, colony counts", "Yes"),
    ("Nc1cc(Cl)ccc1O", "S. typhimurium/E. coli reverse mutation, colony counts", "Yes"),
    ("CC1CO1 (stereo not drawn)", "S. typhimurium/E. coli reverse mutation, colony counts", "Yes"),
    ("CCCCC(CC)CN (stereo not drawn)", "S. typhimurium/E. coli reverse mutation, colony counts", "No"),
    ("CC(C)(OOC(C)(C)c1ccccc1)c1ccccc1", "S. typhimurium/E. coli reverse mutation, colony counts", "No"),
    ("O=NN(CCO)CCO", "S. typhimurium/E. coli reverse mutation, colony counts", "Yes"),
    ("Nc1c2c(nc3ccccc13)CCCC2", "S. typhimurium/E. coli reverse mutation, colony counts", "Yes"),
    ("Nc1ccc2ccccc2c1", "S. typhimurium/E. coli reverse mutation, colony counts", "Yes"),
    ("COc1ccc(O)cc1", "S. typhimurium/E. coli reverse mutation, colony counts", "No"),
    ("COc1ccc(CCC(=O)c2c(O)cc(O[C@@H]3O[C@H](CO)[C@@H](O)[C@H](O)[C@H]3O[C@@H]3O[C@@H](C)[C@H](O)[C@@H](O)[C@H]3O)cc2O)cc1O", "S. typhimurium/E. coli reverse mutation, colony counts", "No"),
    ("C=CCc1cc(OC)c2c(c1)OCO2", "S. typhimurium/E. coli reverse mutation, colony counts", "No"),
    ("C=COC(C)=O", "S. typhimurium/E. coli reverse mutation, colony counts", "No"),
    ("O=P(OC(CCl)CCl)(OC(CCl)CCl)OC(CCl)CCl", "S. typhimurium/E. coli reverse mutation, colony counts", "Yes"),
    ("Oc1ccc2c(c1)OCO2", "S. typhimurium/E. coli reverse mutation, colony counts", "No"),
    ("Cc1c(N=C=O)cccc1N=C=O", "S. typhimurium/E. coli reverse mutation, colony counts", "Yes"),
    ("CCCCOC(C)=O", "S. typhimurium/E. coli reverse mutation, colony counts", "No"),
    ("CCCCCCCCS(=O)C(C)Cc1ccc2c(c1)OCO2 (stereo not drawn)", "S. typhimurium/E. coli reverse mutation, colony counts", "No"),
    ("COc1cc(N)ccc1C", "S. typhimurium/E. coli reverse mutation, colony counts", "Yes"),
    ("O=[N+]([O-])c1cc(Cl)c(Cl)c(Cl)c1", "S. typhimurium/E. coli reverse mutation, colony counts", "Yes"),
    ("Clc1ccc(COC(Cn2ccnc2)c2ccc(Cl)cc2Cl)cc1 (stereo not drawn)", "S. typhimurium/E. coli reverse mutation, colony counts", "No"),
    ("CCCCCON=O", "S. typhimurium/E. coli reverse mutation, colony counts", "Yes"),
    ("[O]=[Cr](=[O])([OH])[O][Cr](=[O])(=[O])[OH]", "S. typhimurium/E. coli reverse mutation, colony counts", "Yes"),
    ("O=CNc1nc(-c2ccc([N+](=O)[O-])o2)cs1", "S. typhimurium/E. coli reverse mutation, colony counts", "Yes"),
    ("CC(CCl)OP(=O)(OC(C)CCl)OC(C)CCl (stereo not drawn)", "S. typhimurium/E. coli reverse mutation, colony counts", "No"),
    ("O=C(OOC(=O)c1ccccc1)c1ccccc1", "S. typhimurium/E. coli reverse mutation, colony counts", "No"),
    ("CN(C)C=O", "S. typhimurium/E. coli reverse mutation, colony counts", "No"),
    ("CCCCCc1cc(O)c2c(c1)OC(C)(C)[C@@H]1CCC(C)=C[C@@H]21", "S. typhimurium/E. coli reverse mutation, colony counts", "No"),
    ("O=C(O)C1C(C(=O)O)C2(Cl)C(Cl)=C(Cl)C1(Cl)C2(Cl)Cl (stereo not drawn)", "S. typhimurium/E. coli reverse mutation, colony counts", "No"),
    ("CC(=O)OC(C)=O", "S. typhimurium/E. coli reverse mutation, colony counts", "No"),
    ("Nc1ccc(Br)cc1", "S. typhimurium/E. coli reverse mutation, colony counts", "No"),
    ("Cc1ccc([N+](=O)[O-])c(N)c1", "S. typhimurium/E. coli reverse mutation, colony counts", "No"),
    ("Cc1cc(Cl)ccc1O", "S. typhimurium/E. coli reverse mutation, colony counts", "No"),
    ("C=CC(=O)OCC(Br)CBr (stereo not drawn)", "S. typhimurium/E. coli reverse mutation, colony counts", "Yes"),
    ("ClC(Cl)=C(c1ccc(Cl)cc1)c1ccc(Cl)cc1", "S. typhimurium/E. coli reverse mutation, colony counts", "No"),
    ("O=C1O[C@H]([C@@H](O)CO)C(O)=C1O", "S. typhimurium/E. coli reverse mutation, colony counts", "Yes"),
    ("Cc1cccc(C(=O)O)c1", "S. typhimurium/E. coli reverse mutation, colony counts", "No"),
    ("NCCCCCCCCCCC(=O)O", "S. typhimurium/E. coli reverse mutation, colony counts", "No"),
    ("CCN(CC)CCCC(C)Nc1c2ccc(Cl)cc2nc2ccc(OC)cc12 (stereo not drawn)", "S. typhimurium/E. coli reverse mutation, colony counts", "Yes"),
    ("NC(=Nc1ccccc1)Nc1ccccc1", "S. typhimurium/E. coli reverse mutation, colony counts", "Yes"),
    ("NC(=O)NO", "S. typhimurium/E. coli reverse mutation, colony counts", "No"),
    ("N#CCCCCC#N", "S. typhimurium/E. coli reverse mutation, colony counts", "No"),
    ("O=c1c2ccc3c4c(ccc(c24)c2nc4ccccc4n12)c(=O)n1c2ccccc2nc31", "S. typhimurium/E. coli reverse mutation, colony counts", "Yes"),
    ("CCCNCCC", "S. typhimurium/E. coli reverse mutation, colony counts", "No"),
    ("CCOc1ccc(NC(C)=O)cc1[N+](=O)[O-]", "S. typhimurium/E. coli reverse mutation, colony counts", "Yes"),
    ("C=CCOC(=O)CCCCCCCC", "S. typhimurium/E. coli reverse mutation, colony counts", "No"),
    ("C=CC(=C)C", "S. typhimurium/E. coli reverse mutation, colony counts", "No"),
    ("CCCCCCCCCCCCCCCCC1CO1 (stereo not drawn)", "S. typhimurium/E. coli reverse mutation, colony counts", "No"),
    ("CCOP(=S)(OCC)OP(=S)(OCC)OCC", "S. typhimurium/E. coli reverse mutation, colony counts", "Yes"),
    ("COC(=O)c1ccc(C)cc1", "S. typhimurium/E. coli reverse mutation, colony counts", "No"),
    ("CCOC(=O)CC", "S. typhimurium/E. coli reverse mutation, colony counts", "No"),
    ("CC(C)Nc1ccc(Nc2ccccc2)cc1", "S. typhimurium/E. coli reverse mutation, colony counts", "No"),
    ("CCN(CC)C(=O)C(Cl)=C(C)OP(=O)(OC)OC", "S. typhimurium/E. coli reverse mutation, colony counts", "Yes"),
    ("CC(Cl)(Cl)[N+](=O)[O-]", "S. typhimurium/E. coli reverse mutation, colony counts", "Yes"),
    ("CCCCCCCCCCCCCl", "S. typhimurium/E. coli reverse mutation, colony counts", "No"),
    ("CCCCN(CC)CC", "S. typhimurium/E. coli reverse mutation, colony counts", "No"),
]

* * *

# Test system: S. typhimurium/E. coli reverse mutation, colony counts
# METHOD SUMMARY: Bacterial reverse mutation test (aka Ames test) summary data;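 further: His-minus Salmonella and trp-minus E. coli WP2 uvrA pKM101 with or without liver S9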
Records with an inconclusive call do not appear. The source made the active and inactive calls. How the calls were made is not given here.

# ITEM SMILES, outcome
data = [
    ("CCCCOC(=O)COc1ccc(Cl)cc1Cl", "inactive; negative"),
    ("O=NN1CCCCC1", "active; positive"),
    ("O=C(O)CNC(=O)c1ccc([N+](=O)[O-])cc1", "active; positive"),
    ("CO/N=C(\\C(=O)N[C@@H]1C(=O)N2C(C(=O)O)=C(COC(N)=O)CS[C@H]12)c1ccco1", "inactive; negative"),
    ("CCCCCCCCn1sccc1=O", "inactive; negative"),
    ("CCC(C)(C)c1ccc(O)cc1", "inactive; negative"),
    ("CNc1ccccc1", "inactive; negative"),
    ("NC(=O)c1ncn([C@@H]2O[C@H](CO)[C@@H](O)[C@H]2O)n1", "inactive; negative"),
    ("CN(C)[C@@H]1C(=O)C(C(N)=O)=C(O)[C@@]2(O)C(=O)C3=C(O)c4c(O)cccc4[C@@](C)(O)[C@H]3[C@H](O)[C@@H]12", "inactive; negative"),
    ("Cc1ccc2nc(-c3ccc(N)cc3)sc2c1", "active; positive"),
    ("O=C1c2c(O)ccc(Nc3ccc(CCO)cc3)c2C(=O)c2c([N+](=O)[O-])ccc(O)c21", "active; positive"),
    ("COc1ccc(C=O)cc1", "inactive; negative"),
]
